Provenance of the data: PubChem BioAssay (NCI)

Test system: SK-MEL-28 melanoma
Assay: NCI tumour cell line growth inhibition, 48 h
Below is a list of entries, each paired with its recorded TGI value.
Give just the number in µM; leave the unit off.

{"Compound": "CC1(C2CCC3(C)C(C2)C3Sc2ccccc2)OCCO1 (centres undefined)", "Test system": "SK-MEL-28 melanoma", "Unit": "µM", "TGI": 63.6}
{"Compound": "CN1CCN(c2nc3cc(F)ccc3n3cccc23)CC1", "Test system": "SK-MEL-28 melanoma", "Unit": "µM", "TGI": 51.8}
{"Compound": "C[C@@H]1Cc2c(ccc3[nH]ncc23)[C@@H](c2ccc(NC3CN(CCCF)C3)cn2)N1CC(F)(F)F", "Test system": "SK-MEL-28 melanoma", "Unit": "µM", "TGI": 32.1}
{"Compound": "COc1ccc(S(=O)(=O)Nc2cc(Sc3cccc4cccnc34)c(O)c3ccccc23)cc1", "Test system": "SK-MEL-28 melanoma", "Unit": "µM", "TGI": 13.2}
{"Compound": "CCC(C)N1CN(c2ccccc2)C2(CCN(CCCC3(c4ccc(F)cc4)OCCO3)CC2)C1=O (centres undefined)", "Test system": "SK-MEL-28 melanoma", "Unit": "µM", "TGI": 34.4}
{"Compound": "CC1=NN(c2nc(N)nc(-c3cc4ccccc4oc3=N)n2)C(C)(C)C1", "Test system": "SK-MEL-28 melanoma", "Unit": "µM", "TGI": 30.5}

Exam item: GET /values?readout=TGI&item= `COC(=O)/C=C\C(C#N)(C#N)N=Cc1ccc(Br)cc1`
Marked response: 32.1

Exam item: GET /values?readout=TGI&item= C[C@H]1CCC2C(OC(=O)[C@@H]2CN(C)C)[C@]2(C)C(=O)C=CC12O (some centres undefined)
Marked response: 8.35

Exam item: GET /values?readout=TGI&item= CCN1CCC(O)(/C=C/c2ccccc2)C(C(=O)/C=C/c2ccccc2)C1 (centres undefined)
Marked response: 3.91

Exam item: GET /values?readout=TGI&item= COc1ccc2c(c1)C=CC1C2CC[C@]2(C)C(NC(=O)/C=C/c3ccc(O)c(O)c3)CCC12 (some centres undefined)
Marked response: 32

Exam item: GET /values?readout=TGI&item= O/N=C1\C(=C\c2ccc3c(c2)OCCO3)CCCC1C(NO)c1ccc2c(c1)OCCO2 (centres undefined)
Marked response: 32.5

Exam item: GET /values?readout=TGI&item= `CCCCOc1ccc(S(=O)(=O)/N=C(\NO)Nc2ccc(Cl)cc2)cc1`
Marked response: 36.1

Exam item: GET /values?readout=TGI&item= `COc1cc2c(=O)n(CC3CCCCC3)c3c4cc[nH]c4ncc3c2cc1OC`
Marked response: 31.2

Exam item: GET /values?readout=TGI&item= `CC[C@@H](C(=O)[C@@H](C)[C@@H](O)[C@H](C)[C@@H]1O[C@@H]([C@@H](CC)C(=O)O)CC[C@@H]1C)[C@H]1O[C@]2(C=C[C@@H](O)[C@]3(CC[C@@](C)([C@H]4CC[C@](O)(CC)[C@H](C)O4)O3)O2)[C@H](C)C[C@@H]1C`
Marked response: 2.38

Exam item: GET /values?readout=TGI&item= O=C(O)c1cccc(S(=O)(=O)NN2C(=O)CSC2c2c(O)ccc3ccccc23)c1 (centres undefined)
Marked response: 79.2

Exam item: GET /values?readout=TGI&item= CCOC(=O)C1=C(C)N(Cc2ccccc2)C2(O)C(OC)CC(=O)C3C(=O)N(c4ccccc4)C(=O)C132 (centres undefined)
Marked response: 23.3

Exam item: GET /values?readout=TGI&item= OCC(S)CS.[Bi] (centres undefined)
Marked response: 28.3
